Where do these numbers come from? They come from ChEMBL document CHEMBL4513216.

Parameter cytotoxicity at 10 µM: see the listing below.
Assay: Toxicity liver stage against HepG2, at 10uM
Assay type: cell-based
Parameters: test concentration 10 uM, cell line HepG2-A16-CD81EGFP
Settings: human, HepG2-A16-CD81EGFP cells; read-out: INHIBITION
REPORTED METRIC: cytotoxicity at 10 µM (%)

>  <COMPOUND>
CCn1nc2c(cc1=O)CN(c1nc3ccccc3s1)CC2

>  <VALUE>
7.5

$$$$
>  <COMPOUND>
O=C(NCCCC(=O)N1Cc2ccccc2C1)NCc1ccsc1

>  <VALUE>
-15

$$$$
>  <COMPOUND>
COCCNC(=O)Nc1ccc(-n2cncn2)c(C(F)(F)F)c1

>  <VALUE>
-5.92

$$$$
>  <COMPOUND>
NC(=O)CN1CCc2c(Br)ccc(F)c2C1

>  <VALUE>
0.892

$$$$
>  <COMPOUND>
COCCN1C[C@@H]2CCCO[C@@H]2[C@H](N(C)Cc2ccco2)C1

>  <VALUE>
-0.388

$$$$
>  <COMPOUND>
Cc1cc(C(=O)N2CCC3(C2)CN(c2cccnc2)C(=O)CN3C)[nH]n1 (stereo unspecified)

>  <VALUE>
5.2

$$$$

---

Assay: Toxicity liver stage against HepG2, at 10uM
Assay type: cell-based
Design: test concentration 10 uM, cell line HepG2-A16-CD81EGFP
Conditions: human, HepG2-A16-CD81EGFP cells; read-out: INHIBITION
Parameter cytotoxicity at 10 µM: see the listing below.
REPORTED METRIC: cytotoxicity at 10 µM (%)

>  <MOLECULE>
CS(=O)(=O)Nc1cccc(CNC(=O)CCNC(=O)c2cccs2)c1

>  <UNIT LABEL>
%

>  <VALUE>
0.466

$$$$
>  <MOLECULE>
CC(C)(C)OC(=O)NCC1CCCCN1Cc1ccccn1 (stereo unspecified)

>  <UNIT LABEL>
%

>  <VALUE>
-3.59

$$$$
>  <MOLECULE>
CN(C)S(=O)(=O)N1CC[C@]2(O)CCN(Cc3cccc(F)c3)C[C@@H]2C1

>  <UNIT LABEL>
%

>  <VALUE>
-5.16

$$$$
>  <MOLECULE>
Cc1cc(CN2CCC(N(C)Cc3noc(C4CC4)n3)C2)no1 (stereo unspecified)

>  <UNIT LABEL>
%

>  <VALUE>
5.35

$$$$
>  <MOLECULE>
CCn1cnnc1CCNS(=O)(=O)N1CCCC1c1ccco1 (stereo unspecified)

>  <UNIT LABEL>
%

>  <VALUE>
-136

$$$$
>  <MOLECULE>
O=C(NCc1ccccn1)c1cncc(C2CCCN2)n1 (stereo unspecified)

>  <UNIT LABEL>
%

>  <VALUE>
3.6

$$$$

---

Assay: Toxicity liver stage against HepG2, at 10uM
Format: cell-based
Set-up: test concentration 10 uM, cell line HepG2-A16-CD81EGFP
Details: human, HepG2-A16-CD81EGFP cells; read-out: INHIBITION

>  <COMPOUND>
COc1ccc2c(c1)OCC(C(=O)NCc1ncc3c(n1)CCC3)C2 (configuration not stated)

>  <UNIT LABEL>
%

>  <cytotoxicity at 10 µM>
2.15

$$$$
>  <COMPOUND>
Cc1cnc2n1CCN(C)C21CCN(C(=O)CC(C)C)CC1

>  <UNIT LABEL>
%

>  <cytotoxicity at 10 µM>
-5.85

$$$$
>  <COMPOUND>
O=C(Nc1nnc[nH]1)C(c1cccc(F)c1)N1CCOCC1 (configuration not stated)

>  <UNIT LABEL>
%

>  <cytotoxicity at 10 µM>
-9.07

$$$$
>  <COMPOUND>
O=C(COc1cccc2c1CCC2=O)NCC(F)(F)F

>  <UNIT LABEL>
%

>  <cytotoxicity at 10 µM>
-8.74

$$$$
>  <COMPOUND>
CCc1cnc(CN(C(C)=O)C2CCN(CCc3cnn(C)c3)C2)o1 (configuration not stated)

>  <UNIT LABEL>
%

>  <cytotoxicity at 10 µM>
-5.85

$$$$
>  <COMPOUND>
CN(C)c1ccc(C(=O)N2CCCC2c2cnn(C)c2)cn1 (configuration not stated)

>  <UNIT LABEL>
%

>  <cytotoxicity at 10 µM>
-1.83

$$$$
>  <COMPOUND>
O=C(NCCc1ccccn1)c1n[nH]c2c1CCC2

>  <UNIT LABEL>
%

>  <cytotoxicity at 10 µM>
-3.81

$$$$
>  <COMPOUND>
Cn1ncc2c(=O)[nH]c(CN3CCCC3CCc3ccccc3)nc21 (configuration not stated)

>  <UNIT LABEL>
%

>  <cytotoxicity at 10 µM>
-8.21

$$$$
>  <COMPOUND>
O=C(O)c1cc(-c2cncnc2)cc(S(=O)(=O)N2CCCCCC2)c1

>  <UNIT LABEL>
%

>  <cytotoxicity at 10 µM>
5.38

$$$$
>  <COMPOUND>
CCn1cc(NC(=O)NCc2ccc3c(c2)OCCO3)cn1

>  <UNIT LABEL>
%

>  <cytotoxicity at 10 µM>
-7.71

$$$$
>  <COMPOUND>
Cc1noc(C2CCCN(C(=O)CCNc3ncccn3)C2)n1 (configuration not stated)

>  <UNIT LABEL>
%

>  <cytotoxicity at 10 µM>
-8.27

$$$$
>  <COMPOUND>
CCc1nc(CN2CCCN(c3cnc4ccccc4n3)CC2)no1

>  <UNIT LABEL>
%

>  <cytotoxicity at 10 µM>
22

$$$$

---

Parameter cytotoxicity at 10 µM: see the listing below.
Experiment: Toxicity liver stage against HepG2, at 10uM
Assay type: cell-based
Parameters: test concentration 10 uM, cell line HepG2-A16-CD81EGFP
Conditions: human, HepG2-A16-CD81EGFP cells; read-out: INHIBITION

>  <MOLECULE>
Cc1ccccc1S(=O)(=O)N1CCc2c(ncnc2N(C)C)C1

>  <cytotoxicity at 10 µM, %>
-16.6

$$$$
>  <MOLECULE>
Cc1cc(C)n(C2CCCN(C(=O)Cc3cccs3)C2)n1 (stereo not drawn)

>  <cytotoxicity at 10 µM, %>
-20.8

$$$$
>  <MOLECULE>
Cc1c(C(=O)N2CC(C)(C)C2(C)C)nnn1-c1cccc2cnccc12

>  <cytotoxicity at 10 µM, %>
9.68

$$$$
>  <MOLECULE>
COCc1nc(C(=O)N2CCN(Cc3ccsc3)CC2)cs1

>  <cytotoxicity at 10 µM, %>
-0.684

$$$$
>  <MOLECULE>
CN(Cc1cn2c(n1)CN(Cc1nccs1)CC2)Cc1ccco1

>  <cytotoxicity at 10 µM, %>
-77.2

$$$$
>  <MOLECULE>
CCN1C(=O)CC(c2ccccc2)C12CCN(CC1CCOCC1)CC2 (stereo not drawn)

>  <cytotoxicity at 10 µM, %>
3.06

$$$$
>  <MOLECULE>
O=C(c1ccc(-n2cnnc2)cc1Cl)N1CCCC2(CCNC2)C1 (stereo not drawn)

>  <cytotoxicity at 10 µM, %>
-5.32

$$$$
>  <MOLECULE>
O=C(CC1CCCCC1)N1CCC(O)(C(F)(F)F)C1 (stereo not drawn)

>  <cytotoxicity at 10 µM, %>
-6.58

$$$$
>  <MOLECULE>
Cc1cc(Br)c(O)c(C(=O)N2CCC(CN3CCCCCC3)CC2)c1

>  <cytotoxicity at 10 µM, %>
8.29

$$$$
>  <MOLECULE>
CNC(=O)[C@H]1C[C@@H]2CCN(CCc3ccccc3)C[C@@H]2O1

>  <cytotoxicity at 10 µM, %>
-81.7

$$$$
>  <MOLECULE>
Cc1cc2[nH]c(CN3CCOC(Cc4ccccc4)C3)cc(=O)n2n1 (stereo not drawn)

>  <cytotoxicity at 10 µM, %>
-24.1

$$$$
>  <MOLECULE>
COc1ccccc1[C@@H]1CN(Cc2cnn(C)c2C)C[C@H]1C(=O)O

>  <cytotoxicity at 10 µM, %>
-3.53

$$$$
>  <MOLECULE>
Cn1ccc(C(=O)N2CCCCC23CC(=O)N(Cc2ccccc2)C3)n1 (stereo not drawn)

>  <cytotoxicity at 10 µM, %>
3.64

$$$$
>  <MOLECULE>
COc1ccccc1C(C)(C)NC(=O)NC1CCC(O)CC1 (stereo not drawn)

>  <cytotoxicity at 10 µM, %>
-3.6

$$$$
>  <MOLECULE>
Clc1ccc(CN2CCOC[C@H](Oc3cccnc3)C2)cc1

>  <cytotoxicity at 10 µM, %>
6.12

$$$$
>  <MOLECULE>
O=C(Nc1cc(-c2ccncc2)no1)C1CCCCC1

>  <cytotoxicity at 10 µM, %>
-5.37

$$$$
>  <MOLECULE>
COc1ccc(C(=O)Nc2c(C)nn(C(C)C)c2C)cc1

>  <cytotoxicity at 10 µM, %>
-3.13

$$$$
>  <MOLECULE>
CC(NC(=O)c1ccc2c(c1)OCC(=O)N2)c1ccccc1F (stereo not drawn)

>  <cytotoxicity at 10 µM, %>
-4.42

$$$$
>  <MOLECULE>
CNCCN1C(=O)CC[C@H]2CN(c3ncc(F)cn3)CC[C@H]21

>  <cytotoxicity at 10 µM, %>
1.68

$$$$
>  <MOLECULE>
CCOc1ccc(S(=O)(=O)NCCCc2ccc(N(C)C)cc2)cc1F

>  <cytotoxicity at 10 µM, %>
-5.67

$$$$
>  <MOLECULE>
N#Cc1cccc(CN2CCN(Cc3cscn3)CC2)c1

>  <cytotoxicity at 10 µM, %>
1.16

$$$$
>  <MOLECULE>
O=C(Nc1ccn(Cc2cccc3cccnc23)n1)C1COCCO1 (stereo not drawn)

>  <cytotoxicity at 10 µM, %>
5.18

$$$$
>  <MOLECULE>
CN1CCCCC[C@@H]2[C@@H]1[C@H](c1ccccc1)CN2C(=O)c1cccnc1

>  <cytotoxicity at 10 µM, %>
-24.4

$$$$
